Hey, just so you know, these numbers are from ChEMBL document CHEMBL4346694.

# ASSAY_INFO: Selectivity ratio of compound effect for binding affinity to FAM-TWJ-TAMRA DNA (unknown origin) assessed as change in melting temperature at 1 uM in absence of 10 uM ds26 DNA to compound effect for binding affinity to FAM-TWJ-TAMRA DNA (unknown origin) assessed as change in melting temperature at 1 uM in presence of 10 uM ds26 DNA
Could you please mark criterion met for values of Selectivity ratio below 80% and criterion not met for values at or above it?

Completed entries (count: 4):
c1cc2c3nc4c(cccc4cc3c1)CNCCOCCNCc1cccc3cc4cccc(c4nc13)CNCCOCCNC2 :: criterion met
c1cc2nc3ccc4cc3cc2cc1CNCCOCCNCc1ccc2nc3ccc(cc3cc2c1)CNCCOCCNC4 :: criterion not met
COCCOCCOCC[n+]1ccc(-c2c3nc(c(-c4cc[n+](CCOCCOCCOC)cc4)c4ccc([nH]4)c(-c4cc[n+](CCOCCOCCOC)cc4)c4nc(c(-c5cc[n+](CCOCCOCCOC)cc5)c5ccc2[nH]5)C=C4)C=C3)cc1 :: criterion met
c1cc2cc(c1)-c1cccc(c1)CNCCN1CCNCc3cccc(c3)-c3cccc(c3)CNCCN(CCNC2)CCNCc2cccc(c2)-c2cccc(c2)CNCC1 :: criterion not met

input: State whether 80% exceeds Selectivity ratio recorded for C[n+]1ccc(-c2c3nc(c(-c4cc[n+](C)cc4)c4ccc([nH]4)c(-c4cc[n+](C)cc4)c4ccc([nH]4)c(-c4cc[n+](C)cc4)c4nc2C=C4)C=C3)cc1 .
output: criterion met

* * *

# ASSAY_INFO: Binding affinity to TWJ-S1/TWJ-S2/TWJ-S3 DNA (unknown origin) assessed as compound-DNA complex formation at 30 uM measured after 1 hr by sybrgold-staining based PAGE analysis
The source made the active and inactive calls. The rule behind the calls is not given here.
Thanks in advance; please answer with one of these: active, inactive

c1cc2c3cccc(c3c1)CNCCOCCNCc1cccc3c(cccc13)CNCCOCCNC2 :: active
c1cc2cc(c1)-c1cccc(c1)CNCCN1CCNCc3cccc(c3)-c3cccc(c3)CNCCN(CCNC2)CCNCc2cccc(c2)-c2cccc(c2)CNCC1 :: active
c1cc2ccc3ccc(-[n+]4csc5ccccc54)c4ccc(c1)c2c34 :: inactive

input: Outcome logged for c1cc2ccc3cc2cc1CNCCNCCNCc1ccc2ccc(cc2c1)CNCCNCCNC3 in this assay:
output: active

input: Outcome logged for Cn1c[n+](-c2ccc3ccc4cccc5ccc2c3c45)cn1 in this assay:
output: inactive

input: Outcome logged for NCCCNC[C@]12c3ccccc3[C@](CNCCCN)(c3ccccc31)c1cc3ccccc3cc12 in this assay:
output: inactive

input: Outcome logged for CN(C)CCCNCC12c3ccccc3C(CNCCCN(C)C)(c3ccccc31)c1ccccc12 in this assay:
output: inactive

* * *

# ASSAY_INFO: Binding affinity to FAM-TWJ-TAMRA DNA (unknown origin) assessed as change in melting temperature at 1 uM after 30 mins in presence of 3 uM ds26 DNA by FRET assay
MEASUREMENT_NAME: ΔTm (°C)
Give the quantity in °C, number only.

input: Give its ΔTm value. Item: C[n+]1ccc(-c2c3nc(c(-c4cc[n+](C)cc4)c4ccc([nH]4)c(-c4cc[n+](C)cc4)c4ccc([nH]4)c(-c4cc[n+](C)cc4)c4nc2C=C4)C=C3)cc1
output: 12

input: Give its ΔTm value. Item: c1cc2cc(c1)-c1cccc(c1)CNCCN1CCNCc3cccc(c3)-c3cccc(c3)CNCCN(CCNC2)CCNCc2cccc(c2)-c2cccc(c2)CNCC1
output: 16.6

input: Give its ΔTm value. Item: c1cc2c3nc4c(cccc4cc3c1)CNCCOCCNCc1cccc3cc4cccc(c4nc13)CNCCOCCNC2
output: 5.5

input: Give its ΔTm value. Item: c1cc2c3cccc(c3c1)CNCCOCCNCc1cccc3c(cccc13)CNCCOCCNC2
output: 8.9
